B1: library; a variant is named by its letters at N, in order (parent)
chain: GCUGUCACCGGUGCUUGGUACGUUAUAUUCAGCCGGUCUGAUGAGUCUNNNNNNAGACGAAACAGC

Variants of: B1
MEASUREMENT_DESCRIPTION: normalized RNA/DNA level with ligand (relative to sTRSVctl = 100) (log10 (% of sTRSVctl)); HEK293T overexpressing SLC46A1; ligand concentration (+) RNA-Seq: 6 mM; higher = less ribozyme self-cleavage, higher mRNA level
ASSAY_SETUP: with (6R,S)-folinic acid; ligand present: yes
ATTRIBUTE_MEASURED: normalized RNA/DNA level with ligand (log10)

>  <VARIANT_STRING>
ACUACU

>  <DATA_VALUE>
2.04

$$$$
>  <VARIANT_STRING>
CCGGGA

>  <DATA_VALUE>
2.02

$$$$
>  <VARIANT_STRING>
ACUACA

>  <DATA_VALUE>
2.01

$$$$
>  <VARIANT_STRING>
AUUGAC

>  <DATA_VALUE>
1.97

$$$$
>  <VARIANT_STRING>
CGUGAA

>  <DATA_VALUE>
2.01

$$$$
>  <VARIANT_STRING>
GCCUGG

>  <DATA_VALUE>
2.03

$$$$
>  <VARIANT_STRING>
UUAUCC

>  <DATA_VALUE>
2.01

$$$$
>  <VARIANT_STRING>
GUCUCC

>  <DATA_VALUE>
2.02

$$$$
>  <VARIANT_STRING>
GAUAGU

>  <DATA_VALUE>
2

$$$$
>  <VARIANT_STRING>
GACACC

>  <DATA_VALUE>
1.98

$$$$
>  <VARIANT_STRING>
CGUGCU

>  <DATA_VALUE>
2.05

$$$$
